These measurements were taken from ChEMBL document CHEMBL1156904.

Parameter fold change (FC): see the listing below.
assay: Antiplatelet activity in human platelet rich plasma assessed as inhibition of ADP-induced platelet aggregation relative to AZD-6140; type: functional
measurement name: fold change (FC)

compound: CCCCCOC(=O)N1CCN(C(=O)[C@H](CCC(=O)O)NC(=O)c2cc(N3CCN(C(=O)N4CCCC4)CC3)cc(-c3ccccc3)n2)CC1
measurement name: fold change (FC)
val: 14
//
compound: CCCCCOC(=O)N1CCN(C(=O)[C@H](CCC(=O)O)NC(=O)c2cc(N3CCN(C(N)=O)CC3)cc(-c3ccccc3)n2)CC1
measurement name: fold change (FC)
val: 1.8
//
compound: CCCCCOC(=O)N1CCN(C(=O)C(CCC(=O)O)NC(=O)c2cc(N3CCC(CO)C3)cc(-c3ccccc3)n2)CC1 (mixture of isomers)
measurement name: fold change (FC)
val: 11
//
compound: CCCCCOC(=O)N1CCN(C(=O)[C@H](CCC(=O)O)NC(=O)c2cc(N3CC(O)C3)cc(-c3ccccc3)n2)CC1
measurement name: fold change (FC)
val: 9.2
//
compound: CCCCCOC(=O)N1CCN(C(=O)[C@H](CCC(=O)O)NC(=O)c2cc(N3CCC(CNC(C)=O)CC3)cc(-c3ccccc3)n2)CC1
measurement name: fold change (FC)
val: 3.9
//
compound: CCCCCOC(=O)N1CCN(C(=O)[C@H](CCC(=O)O)NC(=O)c2cc(N3CCN(C)CC3)cc(-c3ccccc3)n2)CC1
measurement name: fold change (FC)
val: 2.5
//
compound: CCCCCOC(=O)N1CCN(C(=O)C(CCC(=O)O)NC(=O)c2cc(N3CCC(COC)C3)cc(-c3ccccc3)n2)CC1 (mixture of isomers)
measurement name: fold change (FC)
val: 10
//
compound: CCCCCOC(=O)N1CCN(C(=O)[C@H](CCC(=O)O)NC(=O)c2cc(N3CCC(C(=O)N(C)C)CC3)cc(-c3ccccc3)n2)CC1
measurement name: fold change (FC)
val: 0.72
//
compound: CCCCCOC(=O)N1CCN(C(=O)[C@H](CCC(=O)O)NC(=O)c2cc(N3CCC(C(=O)N4CCCC4)CC3)cc(-c3ccccc3)n2)CC1
measurement name: fold change (FC)
val: 0.65
//
compound: CCCCOC(=O)N1CCN(C(=O)[C@H](CCC(=O)O)NC(=O)c2cc(N3CCC(CN4CCCC4=O)CC3)cc(-c3ccccc3)n2)CC1
measurement name: fold change (FC)
val: 1.5
//
compound: CCCCCOC(=O)N1CCN(C(=O)[C@H](CCC(=O)O)NC(=O)c2cc(N3CCC(CN(CC)CC)CC3)cc(-c3ccccc3)n2)CC1
measurement name: fold change (FC)
val: 2.7
//
compound: CCCCCOC(=O)N1CCN(C(=O)[C@H](CCC(=O)O)NC(=O)c2cc(N3CCC(CNC)CC3)cc(-c3ccccc3)n2)CC1
measurement name: fold change (FC)
val: 0.99
//
compound: CCCCCOC(=O)N1CCN(C(=O)[C@H](CCC(=O)O)NC(=O)c2cc(N3CCC(CN4CCCC4)CC3)cc(-c3ccccc3)n2)CC1
measurement name: fold change (FC)
val: 0.93
//
compound: CCCCCOC(=O)N1CCN(C(=O)[C@H](CCC(=O)O)NC(=O)c2cc(N3CCC(CCN)CC3)cc(-c3ccccc3)n2)CC1
measurement name: fold change (FC)
val: 0.66
//
compound: CCCCCOC(=O)N1CCN(C(=O)[C@H](CCC(=O)O)NC(=O)c2cc(N3CCN(CCCN(C)C)CC3)cc(-c3ccccc3)n2)CC1
measurement name: fold change (FC)
val: 0.72
//
compound: CCCCCOC(=O)N1CCN(C(=O)[C@H](CCC(=O)O)NC(=O)c2cc(N3CCN(CC(N)=O)CC3)cc(-c3ccccc3)n2)CC1
measurement name: fold change (FC)
val: 1.8
